Tested on: rat Monoamine Oxidase, MAO-A, Central (MAOAC), gene 29253
Assay summary: NVS_ENZ_rMAOAC: NovaScreen (NVS) Enzymatic Assay for rat Monoamine Oxidase, MAO-A, Central (MAOAC) (AID 2283243);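 further: potency refers to inhibition seen as signal drop below DMSO baseline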
Procedure: NVS_ENZ_rMAOAC is a biochemical, single-readout assay that uses extracted gene-proteins from Rat brain in a tissue-based cell-free assay. Measurements were taken 1.5 hours after chemical dosing in a 96-well plate.NVS_ENZ_rMAOAC is one of one assay component(s) measured or calculated from the NVS_ENZ_rMAOAC assay. […] This assay endpoint, NVS_ENZ_rMAOAC, was analyzed in the positive analysis fitting direction relative to DMSO as the negative control and baseline of activity. […]
The source made the active and inactive calls. How the source made its calls: active means hit-call score of the fitted dose curve at least 0.9, where 1 is the maximum; inconclusive means response in the unintended direction; inactive means score below 0.9.
Please state which outcome applies, choosing from active, inactive

Consider the worked cases shown below.
OC(Cc1ccccc1Cl)(Cn1cncn1)C1(Cl)CC1 (centres undefined)
inactive
Oc1ccc(Cc2ccc(O)cc2)cc1
active
Oc1c(Cl)cc(Cl)cc1Cl
inactive

Identify the outcome logged in this assay for the compound shown: CCCCCCCCCCCCc1cccc(S(=O)(=O)O)c1
active
